IC50: recorded values
- System: HepG2 cells
- Test parameters: Homo sapiens, HepG2, read-out: ACLY HepG2 14C-Pyruvate Assay serum free IC50 FA (IC50) [μM]

[
  {
    "Structure smiles": "O=S(=O)(Nc1ccc(-c2ccccn2)cc1F)c1cc(Cl)cc(Cl)c1O",
    "Target or system": "HepG2 cells",
    "IC50": "> 10 µM"
  },
  {
    "Structure smiles": "COC(=O)c1cc(Cl)c(O)c(S(=O)(=O)Nc2ccc(F)c(-c3ccccc3)c2F)c1",
    "Target or system": "HepG2 cells",
    "IC50": "> 10 µM"
  },
  {
    "Structure smiles": "O=S(=O)(Nc1ccccc1OCc1ccccc1)c1cc(Cl)cc(Cl)c1O",
    "Target or system": "HepG2 cells",
    "IC50": "1 to 10 µM"
  },
  {
    "Structure smiles": "CC(C)C(=O)Oc1c(Cl)cc(-c2cncs2)cc1S(=O)(=O)Nc1cc(-c2ccccc2)c(F)cc1F",
    "Target or system": "HepG2 cells",
    "IC50": "1 to 10 µM"
  },
  {
    "Structure smiles": "O=S(=O)(Nc1cc(-c2ccccc2)ccc1F)c1cc(Br)ccc1O",
    "Target or system": "HepG2 cells",
    "IC50": "1 to 10 µM"
  }
]

====

- Target or system: ACL (Homo sapiens (Human), UniProt P53396)
- Measurement notes: ADP-Glo Assay
- Sequence (P53396 other isoform, or with tags, fused parts or gaps isoform P53396-2): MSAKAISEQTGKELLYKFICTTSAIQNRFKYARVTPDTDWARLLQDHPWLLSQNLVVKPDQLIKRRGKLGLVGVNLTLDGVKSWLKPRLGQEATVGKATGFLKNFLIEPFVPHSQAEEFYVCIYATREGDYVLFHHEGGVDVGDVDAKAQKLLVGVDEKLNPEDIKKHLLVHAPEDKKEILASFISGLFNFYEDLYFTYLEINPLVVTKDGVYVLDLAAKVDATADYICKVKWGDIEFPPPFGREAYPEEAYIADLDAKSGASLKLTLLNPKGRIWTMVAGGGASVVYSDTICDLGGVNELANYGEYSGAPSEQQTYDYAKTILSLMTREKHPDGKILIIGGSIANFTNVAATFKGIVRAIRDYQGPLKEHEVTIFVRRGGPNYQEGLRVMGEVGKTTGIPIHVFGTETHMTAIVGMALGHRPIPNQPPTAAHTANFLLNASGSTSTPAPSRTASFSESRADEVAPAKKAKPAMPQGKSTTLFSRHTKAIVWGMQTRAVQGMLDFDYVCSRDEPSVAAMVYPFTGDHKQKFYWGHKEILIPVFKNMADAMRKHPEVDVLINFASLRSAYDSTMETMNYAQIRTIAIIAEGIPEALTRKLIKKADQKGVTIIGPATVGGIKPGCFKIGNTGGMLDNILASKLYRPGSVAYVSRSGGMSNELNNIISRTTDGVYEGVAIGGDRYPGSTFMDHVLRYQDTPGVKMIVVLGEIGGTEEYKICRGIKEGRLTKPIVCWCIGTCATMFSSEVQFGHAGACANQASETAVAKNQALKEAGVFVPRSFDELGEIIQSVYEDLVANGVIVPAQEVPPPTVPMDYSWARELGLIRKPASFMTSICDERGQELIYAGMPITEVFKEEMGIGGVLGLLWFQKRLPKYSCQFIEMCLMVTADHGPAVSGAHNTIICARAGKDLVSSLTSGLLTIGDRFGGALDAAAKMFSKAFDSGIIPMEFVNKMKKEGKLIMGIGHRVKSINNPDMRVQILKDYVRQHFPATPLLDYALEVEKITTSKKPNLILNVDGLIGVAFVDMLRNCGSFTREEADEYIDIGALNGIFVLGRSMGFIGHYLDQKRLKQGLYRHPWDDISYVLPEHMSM
pIC50: −log10 of the molar value.
Catalogue of compounds with associated pIC50

[
  {
    "Structure smiles": "O=C(O)c1ccc(-c2ccccc2)cc1NS(=O)(=O)c1cn[nH]c1",
    "pIC50": "< 4.70"
  },
  {
    "Structure smiles": "COc1cc(-c2ccccc2)ccc1NS(=O)(=O)c1cc(Cl)cc(Cl)c1O",
    "pIC50": "4.70 to 6.30"
  },
  {
    "Structure smiles": "COC(=O)c1cc(Cl)c(OC)c(S(=O)(=O)Nc2cc(-c3cccnc3)ccc2OC)c1",
    "pIC50": "4.70 to 6.30"
  },
  {
    "Structure smiles": "COc1ccc(-c2cccs2)cc1NS(=O)(=O)c1cc(Cl)cc(Cl)c1O",
    "pIC50": "6.30 to 7.30"
  },
  {
    "Structure smiles": "COC(=O)c1cc(Cl)cc(S(=O)(=O)Nc2cc(-c3ccccc3)ccc2OC)c1OC",
    "pIC50": "< 4.70"
  }
]

====

- Target or system: ACL (Homo sapiens (Human), UniProt P53396)
- Measurement notes: ACLY-MDH Coupled Assay
- Sequence (P53396 whole entry, species assumed): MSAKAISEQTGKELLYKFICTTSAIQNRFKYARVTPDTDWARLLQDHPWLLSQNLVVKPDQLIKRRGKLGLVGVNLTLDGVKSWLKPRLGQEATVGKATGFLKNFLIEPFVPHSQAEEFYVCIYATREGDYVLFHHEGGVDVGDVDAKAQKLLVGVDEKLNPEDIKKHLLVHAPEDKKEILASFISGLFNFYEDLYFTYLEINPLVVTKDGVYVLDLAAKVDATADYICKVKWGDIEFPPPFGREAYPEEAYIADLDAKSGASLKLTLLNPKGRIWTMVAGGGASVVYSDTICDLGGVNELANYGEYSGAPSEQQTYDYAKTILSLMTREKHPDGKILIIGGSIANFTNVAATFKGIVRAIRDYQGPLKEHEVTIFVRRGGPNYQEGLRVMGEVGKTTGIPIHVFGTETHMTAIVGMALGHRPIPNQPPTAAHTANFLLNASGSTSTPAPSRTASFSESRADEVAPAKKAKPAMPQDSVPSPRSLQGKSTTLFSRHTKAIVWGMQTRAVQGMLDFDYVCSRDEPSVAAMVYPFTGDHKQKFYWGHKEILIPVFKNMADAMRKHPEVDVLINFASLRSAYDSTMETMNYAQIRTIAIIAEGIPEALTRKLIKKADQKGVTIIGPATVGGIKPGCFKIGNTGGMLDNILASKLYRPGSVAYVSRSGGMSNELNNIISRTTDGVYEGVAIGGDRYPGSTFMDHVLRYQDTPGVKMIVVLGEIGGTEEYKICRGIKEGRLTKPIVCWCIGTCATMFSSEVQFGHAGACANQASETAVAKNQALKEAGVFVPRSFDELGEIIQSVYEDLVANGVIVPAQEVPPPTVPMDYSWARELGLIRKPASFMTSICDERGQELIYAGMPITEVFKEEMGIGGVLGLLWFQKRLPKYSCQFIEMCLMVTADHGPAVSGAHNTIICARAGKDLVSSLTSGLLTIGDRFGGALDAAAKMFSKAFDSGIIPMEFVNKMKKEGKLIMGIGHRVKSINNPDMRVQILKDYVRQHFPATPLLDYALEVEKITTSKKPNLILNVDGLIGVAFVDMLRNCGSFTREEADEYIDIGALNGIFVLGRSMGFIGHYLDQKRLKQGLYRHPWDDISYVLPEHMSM
Let's look at some compounds and their measured IC50.

[
  {
    "Compound": "O=C(O)COc1ccc(-c2ccccc2)cc1NS(=O)(=O)c1cc(C(F)(F)F)cc(Cl)c1O [I-264]",
    "IC50": "500 to 30000 nM"
  },
  {
    "Compound": "CC(=O)N1CCc2cc(Br)c(S(=O)(=O)Nc3cc(-c4ccccc4)ccc3C(=O)O)cc21 [I-338]",
    "IC50": "500 to 30000 nM"
  },
  {
    "Compound": "O=C(c1cncs1)N(c1ccc(Cl)cc1)S(=O)(=O)c1cc(Br)cc(Cl)c1O [I-511]",
    "IC50": "500 to 30000 nM"
  },
  {
    "Compound": "O=C(O)c1cc(Cl)c(O)c(S(=O)(=O)Nc2cc(-c3cc4ccccc4s3)c(F)cc2OC(F)(F)F)c1 [I-508]",
    "IC50": "500 to 30000 nM"
  },
  {
    "Compound": "N#Cc1cc(Cl)cc(S(=O)(=O)Nc2cc(-c3ccccc3)ccc2C(=O)O)c1 [I-226]",
    "IC50": "500 to 30000 nM"
  },
  {
    "Compound": "O=C(O)c1sc(-c2ccc(Cl)cc2)cc1NS(=O)(=O)c1cc(Cl)cc(Cl)c1 [I-322]",
    "IC50": "500 to 30000 nM"
  },
  {
    "Compound": "O=C(O)c1ccc(-c2ccccc2)cc1NS(=O)(=O)c1cccc(-n2cnnn2)c1 [I-372]",
    "IC50": "500 to 30000 nM"
  },
  {
    "Compound": "O=C(O)c1ccc(-c2ccccc2)cc1NS(=O)(=O)c1cc(Cl)cc(Cl)c1 [I-208]",
    "IC50": "50 to 500 nM"
  },
  {
    "Compound": "O=S(=O)(NC(c1ccccc1)c1ccccc1)c1cc(Cl)cc(Cl)c1O [I-16]",
    "IC50": "500 to 30000 nM"
  },
  {
    "Compound": "O=S(=O)(Nc1cc(-c2ccccc2)c(F)cc1F)c1cc(CO)cc(Cl)c1O [I-90]",
    "IC50": "50 to 500 nM"
  },
  {
    "Compound": "COc1cc(F)c(-c2cc3ccccc3s2)cc1NS(=O)(=O)c1cc(C(=O)O)cc(Cl)c1O [I-510]",
    "IC50": "500 to 30000 nM"
  },
  {
    "Compound": "COC(=O)c1cc(Cl)c(O)c(S(=O)(=O)Nc2ccc(F)c(-c3ccccc3)c2F)c1 [I-110]",
    "IC50": "500 to 30000 nM"
  },
  {
    "Compound": "O=C(O)c1cc(F)c(-c2ccccc2)cc1NS(=O)(=O)c1cc(Cl)cc(Cl)c1 [I-287]",
    "IC50": "50 to 500 nM"
  },
  {
    "Compound": "O=C(c1cc(Cl)c(O)c(S(=O)(=O)N(C(=O)C2CC2)c2cc(-c3ccccc3)c(F)cc2F)c1)N1CCC1 [I-229]",
    "IC50": "50 to 500 nM"
  },
  {
    "Compound": "O=C(O)COc1c(Br)cc(C(=O)N2CCC2)cc1S(=O)(=O)Nc1cc(-c2ccccc2)ccc1F [I-192]",
    "IC50": "500 to 30000 nM"
  },
  {
    "Compound": "COc1ccc(-c2cccnc2)cc1NS(=O)(=O)c1cc(C(=O)N2CCC2)cc(Cl)c1O [I-144]",
    "IC50": "500 to 30000 nM"
  },
  {
    "Compound": "O=C(O)c1ccc(-c2ccccc2)cc1NS(=O)(=O)c1cc(F)cc(Cl)c1 [I-233]",
    "IC50": "50 to 500 nM"
  }
]

====

- Target or system: ACL (Homo sapiens (Human), UniProt P53396)
- Measurement notes: ADP-Glo Assay
- Test parameters: read-out: ACL-ADP-Glo (IC50)
pIC50: −log10 of the molar value.
Readout type: pIC50

[
  {
    "Compound": "COC(=O)c1cc(Cl)c(O)c(S(=O)(=O)Nc2cc(-c3ccccc3)c(F)cc2F)c1 [I-65]",
    "Readout type": "pIC50",
    "Experimental value": "> 7.30"
  }
]

====

- Target or system: ACL (Homo sapiens (Human))
- Measurement notes: ADP-Glo Assay
Readout type: IC50

[
  {
    "Molecule": "O=C(O)c1cc(F)c(-c2ccccc2)cc1NS(=O)(=O)c1cc(Cl)cc(Cl)c1O [I-289]",
    "Experimental value": "500 to 20000 nM"
  },
  {
    "Molecule": "COC(=O)c1ccc(F)c(NS(=O)(=O)c2cc(Cl)cc(Cl)c2O)c1 [I-43]",
    "Experimental value": "500 to 20000 nM"
  },
  {
    "Molecule": "CC(C)(C)OC(=O)COc1ccc(-c2ccccc2)cc1NS(=O)(=O)c1cc(C(F)(F)F)cc(Cl)c1O [I-265]",
    "Experimental value": "500 to 20000 nM"
  },
  {
    "Molecule": "COc1ccc(-c2ccccc2)cc1NS(=O)(=O)c1c(C)c(Cl)cc(Cl)c1O [I-1]",
    "Experimental value": "50 to 500 nM"
  },
  {
    "Molecule": "COc1cc(F)c(-c2cc3ccccc3s2)cc1NS(=O)(=O)c1cc(C(=O)O)cc(Cl)c1O [I-510]",
    "Experimental value": "500 to 20000 nM"
  },
  {
    "Molecule": "O=S(=O)(Nc1cc(-c2ccccc2)ccc1F)c1cccc2cc[nH]c12 [I-377]",
    "Experimental value": "> 20000 nM"
  },
  {
    "Molecule": "O=C(O)c1ccc(-c2ccccc2)cc1NS(=O)(=O)c1cc(Cl)sc1Cl [I-331]",
    "Experimental value": "500 to 20000 nM"
  },
  {
    "Molecule": "O=S(=O)(Nc1cc(-c2ccccc2)ccc1F)c1cc(Cl)cc(Cl)c1O [I-22]",
    "Experimental value": "50 to 500 nM"
  },
  {
    "Molecule": "O=C(O)c1ccc(-c2ccccc2)cc1NS(=O)(=O)N1CCC2(CCCCC2)CC1 [I-340]",
    "Experimental value": "500 to 20000 nM"
  }
]

Where do the numbers come from? From patent US11555012B2.
